test: HILIC, Merck SeQuant ZIC-HILIC, 25 °C, 0.25 mL/min; A: water + 16 mM ammonium formate; B: acetonitrile + 0.1% formic acid, pH 3; gradient (min/%B) 0/97 2/97 10/70 15/10 17/10 18/97 25/97; conditions: stereoisomer not certain

- compound: "Nc1ncnc2c1ncn2C1OC(COP(=O)(O)OP(=O)(O)O)C(O)C1O (stereo not given) [ADENOSINE 5'-DIPHOSPHATE]"
  LC retention time (min): 14.7
- compound: "O=P(O)(O)OC1OC(CO)C(O)C(O)C1O (stereo not given) [GALACTOSE 1-PHOSPHATE]"
  LC retention time (min): 14.7
- compound: "CCCCCCCCCCCCCCCC(=O)OCC(CO)OC(=O)CCCCCCCCCCCCCCC (stereo not given)"
  LC retention time (min): 1.5
- compound: "O=C(O)CCCCCCCCCCCO [OMEGA-HYDROXYDODECANOATE]"
  LC retention time (min): 1.7
- compound: "NC(CCC(=O)O)C(=O)O (stereo not given) [GLUTAMATE]"
  LC retention time (min): 14.2

Cited source: the RepoRT retention time repository
